Assign melting point to each entry below.

Answered cases to consult:
{"compound": "CNc1nc(-c2cccc(NC(=O)c3ccccn3)c2)c2cc(OC)c(OC)cc2n1 [Example 3]", "melting point": "175 to 177 °C"}
{"compound": "CNc1nc(-c2cccc(C(=O)Nc3cccnc3)c2)c2cc(OC)c(OC)cc2n1 [Example 71]", "melting point": "238 to 240 °C"}
{"compound": "CNc1nc(-c2cccc(NC(=O)c3ccnc(Cl)c3)c2)c2cc(OC)c(OC)cc2n1 [Example 33]", "melting point": "151 to 153 °C"}
{"compound": "CNc1nc(-c2cccc(NC(=O)c3cccc(O)c3)c2)c2cc(OC)c(OC)cc2n1 [Example 23]", "melting point": "265 to 267 °C"}
{"compound": "CNc1nc(-c2cccc(NC(=O)c3ccccc3OCc3ccccc3)c2)c2cc(OC)c(OC)cc2n1 [Example 24]", "melting point": "192 to 194 °C"}

Parameters: items (list). Returns: melting point for each item.
1. CNc1nc(-c2cccc(NC(=O)c3ccc(S(C)(=O)=O)cc3)c2)c2cc(OC)c(OC)cc2n1 [Example 28]
2. CNc1nc(-c2cccc(NC(=O)c3ccc(N(C)C)nc3)c2)c2cc(OC)c(OC)cc2n1 [Example 30]
3. CNc1nc(-c2cccc(NC(=O)c3ccc(OC)c(OC)c3)c2)c2cc(OC)c(OC)cc2n1 [Example 14]
4. CNc1nc(-c2cccc(NC(=O)c3ccc([S+](C)[O-])cc3)c2)c2cc(OC)c(OC)cc2n1 (stereo not drawn) [Example 27]
5. CNc1ccc(C(=O)Nc2cccc(-c3nc(NC)nc4cc(OC)c(OC)cc34)c2)cn1 [Example 32]
6. CNc1nc(-c2cccc(NCc3ccccc3)c2)c2cc(OC)c(OC)cc2n1 [Example 38]
7. CNc1nc(-c2cccc(NC(=O)c3cccnc3)c2)c2cc(OC)c(OC)cc2n1 [Example 4]
8. CNc1nc(-c2cccc(N3Cc4ccccc4C3=O)c2)c2cc(OC)c(OC)cc2n1 [Example 45]

277 to 279 °C
149 to 151 °C
128 to 130 °C
246 to 248 °C
193 to 195 °C
146 to 148 °C
251 to 253 °C
230 to 232 °C

---

measurement kind: melting point

{"compound": "CNc1nc(-c2cccc(-c3cncc4ccccc34)c2)c2cc(OC)c(OC)cc2n1", "melting point": "181 to 183 °C"}
{"compound": "CNc1nc(-c2cccc(NC(=O)c3ccccc3)c2)c2cc(O)c(OC)cc2n1", "melting point": "145 to 147 °C"}
{"compound": "CNc1nc(-c2cccc(-n3cccc3)c2)c2cc(OC)c(OC)cc2n1", "melting point": "199 to 201 °C"}
{"compound": "CNc1nc(-c2cccc(NC(=O)c3cc(OC)c(OC)c(OC)c3)c2)c2cc(OC)c(OC)cc2n1", "melting point": "122 to 124 °C"}
{"compound": "CNc1nc(-c2cccc(-c3cncc(OC)c3)c2)c2cc(OC)c(OC)cc2n1", "melting point": "225 to 227 °C"}
{"compound": "CNc1nc(-c2cccc(NC(=O)c3ccc(N4CCCC4)nc3)c2)c2cc(OC)c(OC)cc2n1", "melting point": "239 to 241 °C"}
{"compound": "CNc1nc(-c2cccc(NC(=O)c3ccccc3O)c2)c2cc(OC)c(OC)cc2n1", "melting point": "212 to 214 °C"}
{"compound": "CCOc1cc2nc(NC)nc(-c3cccc(-c4cncc([S+](C)[O-])c4)c3)c2cc1OCC (centres unmarked)", "melting point": "188 to 190 °C"}

Parameters: items (list). Returns: melting point for each item.
1. CNc1nc(-c2cccc(NC(=O)c3ccccc3OC)c2)c2cc(OC)c(OC)cc2n1
2. CNc1nc(-c2cccc(NC(=O)CCc3ccccc3)c2)c2cc(OC)c(OC)cc2n1
3. CNc1nc(-c2cccc(NC(=O)c3ccc(Cl)c(Cl)c3)c2)c2cc(OC)c(OC)cc2n1

1. 194 to 196 °C
2. 180 to 182 °C
3. 134 to 136 °C
